measured_on: human thyroid hormone receptors TRα1 (Homo sapiens)
Construct: made in house; host or cells: Sf9 insect cells (baculovirus)
Sequence (P10827 1-410 isoform P10827-2): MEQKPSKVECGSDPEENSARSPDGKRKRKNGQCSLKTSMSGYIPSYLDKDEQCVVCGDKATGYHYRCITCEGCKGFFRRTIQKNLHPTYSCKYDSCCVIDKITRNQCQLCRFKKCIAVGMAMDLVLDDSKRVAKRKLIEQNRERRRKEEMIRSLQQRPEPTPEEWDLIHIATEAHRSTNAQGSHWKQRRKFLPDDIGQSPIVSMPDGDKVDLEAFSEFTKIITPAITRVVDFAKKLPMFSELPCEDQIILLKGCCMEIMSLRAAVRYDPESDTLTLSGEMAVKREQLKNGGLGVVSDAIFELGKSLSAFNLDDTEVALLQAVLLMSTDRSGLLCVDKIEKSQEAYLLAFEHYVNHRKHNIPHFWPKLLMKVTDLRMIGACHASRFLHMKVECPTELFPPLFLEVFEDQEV
Sequence (P19793 whole entry partner): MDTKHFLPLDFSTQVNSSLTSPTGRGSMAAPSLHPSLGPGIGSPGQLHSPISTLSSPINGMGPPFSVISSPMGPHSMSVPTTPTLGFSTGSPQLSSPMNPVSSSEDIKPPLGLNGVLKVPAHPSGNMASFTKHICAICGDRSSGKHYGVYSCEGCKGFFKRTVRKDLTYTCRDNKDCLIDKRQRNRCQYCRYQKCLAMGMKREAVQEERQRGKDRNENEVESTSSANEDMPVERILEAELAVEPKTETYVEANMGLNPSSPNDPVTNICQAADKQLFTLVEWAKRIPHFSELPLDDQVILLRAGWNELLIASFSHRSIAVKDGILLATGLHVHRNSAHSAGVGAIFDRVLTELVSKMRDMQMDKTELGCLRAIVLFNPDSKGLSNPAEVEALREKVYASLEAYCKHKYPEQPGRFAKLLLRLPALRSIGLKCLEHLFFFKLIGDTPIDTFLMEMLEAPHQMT
method_notes: Receptor binding to TRα1 (gel filtration and scintillation proximity assay, labeled T3)
particulars: SPA data; read-out: Ki TRα
attribute_measured: Ki (nM)

| compound | measured_on | reported_value |
| --- | --- | --- |
| Cc1cc(OC[P@]2(=O)OCC[C@@H](c3cccc(Br)c3)O2)cc(C)c1Cc1ccc(O)c(C(C)C)c1 [Compound 13-2-trans] | human thyroid hormone receptors TRα1 (Homo sapiens) | 1350 |
| Cc1cc2[nH]c(P(=O)(O)O)cc2c(C)c1Oc1ccc(O)c(C(C)C)c1 | human thyroid hormone receptors TRα1 (Homo sapiens) | 863 |
| Cc1cc(OC[P@@]2(=O)OCC[C@@H](c3cccc(Cl)c3)O2)cc(C)c1Cc1ccc(O)c(C(C)C)c1 [Compound 13-1-cis] | human thyroid hormone receptors TRα1 (Homo sapiens) | 2580 |
| Cc1cc(OCP(C)(=O)O)cc(C)c1Cc1ccc(O)c(C(C)C)c1 | human thyroid hormone receptors TRα1 (Homo sapiens) | 183 |
| Cc1cc(OC(F)(F)P(=O)(O)O)cc(C)c1Cc1ccc(O)c(C(C)C)c1 | human thyroid hormone receptors TRα1 (Homo sapiens) | 98 |

1. Cc1cc(Cc2c(C)cc(OCP(=O)(O)O)cc2C)cc(C(C)C)c1O
2. Cc1cc(OC[P@]2(=O)OCC[C@@H](c3cccc(F)c3)O2)cc(C)c1Cc1ccc(O)c(C(C)C)c1 [Compound 13-3-trans]
Record comparison, field Ki: mark the lower of 1 and 2 . Give the label under which the chosen entry appears.
1
